Test system: KM12 colon
ASSAY NOTES: NCI tumour cell line growth inhibition, 48 h
READOUT: TGI

Could I get TGI for every one of these entries?
1. CN(Cc1ccccc1)c1ncnc2ccc(Br)cc12
2. COC1=CC(=O)c2c(O)c3c(c(O)c2C1=O)OC1(Oc2c(cc4cc(C)oc(=O)c4c2O)CC1O)C3O (configuration not stated)
3. CC(C)(C)n1nc(C2CC2)cc1NC(=O)Nc1ccc(Cl)cc1
4. O=C1C2=C(C(=O)c3c(O)ccc(O)c31)N(c1cccnc1)Cc1ccccc1O2

Result:
25.5 µM
> 100 µM
> 100 µM
5.23 µM

Could I get TGI for every one of these entries?
1. CC(C)NC1CCCCC2c3cc(F)ccc3[C@]12O (some centres not stated)
2. Cc1cc(C)nc(NS(=O)(=O)c2ccc(Nc3nc4nc(NCc5ccccc5)nc(-c5ccc(O)cc5)c4c(=O)[nH]3)cc2)n1
3. COc1cccc([C@@H]2C/C(=N\NC(=O)C(=O)N[C@@H](C)c3ccccc3)c3cc4c(cc3N2)OCO4)c1
4. O=c1oc2cc(O)ccc2c(O)c1C(c1ccc2ccccc2c1)c1c(O)c2ccc(O)cc2oc1=O
5. Nc1nc(N)c2c(CCc3ccc(C(=O)N[C@@H](CCC(=O)O)C(=O)O)cc3)ccnc2n1
6. CC1(C)CCCC2(C)C3=C(CCC12)C(=O)OC3 (configuration not stated)
7. Cc1ccc(N/N=C/C2=CC(C)(C)C(C#N)(C#N)C(O)=C2C#N)cc1
8. Nc1ncnc2c1ncn2C1OC(CO)CC1O (configuration not stated)

Result:
1. > 100 µM
2. > 100 µM
3. > 100 µM
4. > 100 µM
5. > 100 µM
6. > 100 µM
7. > 100 µM
8. > 100 µM

Could I get TGI for every one of these entries?
1. Cc1cc(NCCCNc2ccnc3cc(Cl)ccc23)nc(Nc2ccc(C(=O)N3CCCCC3)cc2)n1
2. CSC1=C(C(=O)N(COCC[Si](C)(C)C)c2ccccc2Br)CCC(C(C)(C)C)C1 (configuration not stated)
3. S=P(C1CCCCC1)(C1CCCCC1)C(c1cccnc1)N1CCCC1 (configuration not stated)
4. CC1(C)[C@H]2CC[C@](C)(C2)[C@]1(S)Cc1ccccn1
5. N=C(N)SC(c1ccccc1)c1ccccc1
6. Oc1ccccc1/C=N/Nc1nc2ccccc2s1

Result:
["11.6 µM", "42.2 µM", "33.4 µM", "> 100 µM", "32.9 µM", "> 100 µM"]

* * *

Can you tell me TGI for the items I'm about to list?
Tested on: OVCAR-3 ovarian
ASSAY NOTES: NCI tumour cell line growth inhibition, 48 h

A selection of reference data follows.
* COc1cc2c(cc1OCCCOc1cc3c(cc1OC)C(=O)N1CC(F)(F)C[C@H]1C=N3)N=C[C@@H]1CC(F)(F)CN1C2=O | 6.99 µM
* Cc1cc(NCCCNc2ccnc3cc(Cl)ccc23)nc(Nc2ccc(C(=O)N3CCCCC3)cc2)n1 | 5.91 µM
* COc1ccccc1CN=C1NC(=O)/C(=C/c2ccc3ncccc3c2)S1 | 24.9 µM
* COc1c(C(=O)/C(=N/Nc2cccc(Cl)c2)C(C)=O)c(O)c(OC)c2occc12 | > 100 µM
* O=C1CSC(c2c[nH]c3ccccc23)N1c1cccc([N+](=O)[O-])c1 (configuration not stated) | > 100 µM

Could I get TGI for every one of these entries?
1. COc1ccc2c(c1)OCC1=C2Oc2ccccc2C1
2. CC(/C=C/c1ccccc1)=N\N=C(C)\C=C\c1ccccc1

Result:
1. > 100 µM
2. > 100 µM

Could I get TGI for every one of these entries?
1. CC1(C)CC(=O)c2c([nH]c(=S)c(C#N)c2-c2ccc(Br)cc2)C1
2. C=CC(C)CCC(C/C=C(\C)CCCC(C)C)C(=C)CCCC(C)C (configuration not stated)

Result:
1: > 100 µM; 2: > 100 µM

Could I get TGI for every one of these entries?
1. Cn1cc(S(=O)(=O)NC(=O)Nc2ccc(Cl)cc2)c(=O)c2ccc(Cl)cc21
2. N=C(N)c1ccc(CS(=O)(=O)F)cc1
3. CC1(C)CCCC2(C)C3=C(CCC12)C(=O)OC3 (configuration not stated)

Result:
> 100 µM
> 100 µM
> 100 µM

Each recorded value in this set is attributed to PubChem BioAssay (NCI).
